Biological target: recombinant human CD3ε/δ heterodimer (human) (UniProt P07766)
Sequence (P07766 23-126, stated change not applied, chain 1 of 2): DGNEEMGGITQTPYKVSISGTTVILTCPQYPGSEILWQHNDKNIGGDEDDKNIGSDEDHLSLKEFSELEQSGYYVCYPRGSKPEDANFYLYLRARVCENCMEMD
Sequence (P04234 22-105, stated change not applied, chain 2 of 2, further chain): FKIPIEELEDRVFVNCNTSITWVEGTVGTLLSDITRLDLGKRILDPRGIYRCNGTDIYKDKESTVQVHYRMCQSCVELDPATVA
Test: ELISA, coated CD3ε/δ
measure: Absorbance (450 nm)
Lab note: record the figure alone, no unit after it.

[[record]]
binder = "A06 (antibody, human IgG1, lambda, L234A L235A, V domains shown) VH: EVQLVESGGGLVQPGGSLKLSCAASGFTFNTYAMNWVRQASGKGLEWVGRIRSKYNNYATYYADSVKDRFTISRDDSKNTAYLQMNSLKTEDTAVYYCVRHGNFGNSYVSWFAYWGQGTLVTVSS VL: QAVVTQEPSLTVSPGGTVTLTCRSSTGAVTTSNYANWFQQKPGQAPRGLIYGTNKRAPWTPARFSGSLLGDKAALTLSGAQPEDEAEYYCALWYSNLWVFGGGTKLTVLG"
endpoint_result = 0.14

[[record]]
binder = "C14 (antibody, human IgG1, lambda, L234A L235A, V domains shown) VH: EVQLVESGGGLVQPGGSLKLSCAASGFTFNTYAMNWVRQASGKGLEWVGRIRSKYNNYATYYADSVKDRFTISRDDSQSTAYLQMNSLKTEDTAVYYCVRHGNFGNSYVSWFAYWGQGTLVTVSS VL: QAVVTQEPSLTVSPGGTVTLTCRSSTGAVTTSNYANWVQQKPGQAPRGLIYGTNKRAPWTPARFSGSLLGDKAALTLSGAQPEDEAEYYCALWYSNLWVFGGGTKLTVLG"
endpoint_result = 0.107

[[record]]
binder = "C07 (antibody, human IgG1, lambda, L234A L235A, V domains shown) VH: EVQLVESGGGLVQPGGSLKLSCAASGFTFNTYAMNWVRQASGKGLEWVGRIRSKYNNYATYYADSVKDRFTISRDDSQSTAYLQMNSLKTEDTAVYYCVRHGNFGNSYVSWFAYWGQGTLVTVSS VL: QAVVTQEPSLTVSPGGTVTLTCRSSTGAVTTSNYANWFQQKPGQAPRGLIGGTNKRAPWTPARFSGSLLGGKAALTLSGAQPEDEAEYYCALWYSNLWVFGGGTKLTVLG"
endpoint_result = 0.96

[[record]]
binder = "C06 (antibody, human IgG1, lambda, L234A L235A, V domains shown) VH: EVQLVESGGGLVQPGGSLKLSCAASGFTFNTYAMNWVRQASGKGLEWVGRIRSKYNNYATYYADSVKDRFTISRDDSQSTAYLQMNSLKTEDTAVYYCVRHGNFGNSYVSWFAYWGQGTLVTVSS VL: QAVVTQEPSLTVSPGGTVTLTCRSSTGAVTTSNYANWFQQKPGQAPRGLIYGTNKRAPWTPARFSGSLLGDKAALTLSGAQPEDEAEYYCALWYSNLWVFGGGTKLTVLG"
endpoint_result = 0.108

[[record]]
binder = "A03 (antibody, human IgG1, lambda, L234A L235A, V domains shown) VH: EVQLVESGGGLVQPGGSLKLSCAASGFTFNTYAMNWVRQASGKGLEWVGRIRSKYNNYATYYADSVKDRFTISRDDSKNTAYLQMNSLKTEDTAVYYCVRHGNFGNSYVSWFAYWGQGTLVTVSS VL: QAVVTQEPSLTVSPGGTVTLTCRSSTGAVTTSNYANWFQQKPGQAPRTLIGGTNKRAPWTPARFSGSLLGGKAALTLSGAQPEDEAEYYCALWYSNLWVFGGGTKLTVLG"
endpoint_result = 0.132

[[record]]
binder = "B10 (antibody, human IgG1, lambda, L234A L235A, V domains shown) VH: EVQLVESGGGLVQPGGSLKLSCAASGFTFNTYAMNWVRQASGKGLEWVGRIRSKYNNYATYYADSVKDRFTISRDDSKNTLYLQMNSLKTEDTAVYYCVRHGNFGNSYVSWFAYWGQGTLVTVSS VL: QAVVTQEPSLTVSPGGTVTLTCRSSTGAVTTSNYANWVQQKPGQAPRTLIYGTNKRAPWTPARFSGSLLGDKAALTLSGAQPEDEAEYYCALWYSNLWVFGGGTKLTVLG"
endpoint_result = 0.098

[[record]]
binder = "C03 (antibody, human IgG1, lambda, L234A L235A, V domains shown) VH: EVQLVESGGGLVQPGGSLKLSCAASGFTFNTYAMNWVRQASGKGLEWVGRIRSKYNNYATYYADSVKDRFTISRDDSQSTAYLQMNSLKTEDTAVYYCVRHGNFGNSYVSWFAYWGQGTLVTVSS VL: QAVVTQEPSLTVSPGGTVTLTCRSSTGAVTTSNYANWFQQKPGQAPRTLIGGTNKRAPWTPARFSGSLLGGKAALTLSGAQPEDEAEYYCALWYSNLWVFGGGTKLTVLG"
endpoint_result = 0.14

[[record]]
binder = "B06 (antibody, human IgG1, lambda, L234A L235A, V domains shown) VH: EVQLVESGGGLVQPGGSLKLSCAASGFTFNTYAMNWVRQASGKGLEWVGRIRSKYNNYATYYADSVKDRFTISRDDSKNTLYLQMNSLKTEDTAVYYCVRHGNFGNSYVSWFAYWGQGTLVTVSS VL: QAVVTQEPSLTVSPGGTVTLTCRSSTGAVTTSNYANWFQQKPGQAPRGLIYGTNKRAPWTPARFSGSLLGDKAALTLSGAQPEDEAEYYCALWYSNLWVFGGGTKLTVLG"
endpoint_result = 0.138

[[record]]
binder = "E08 (antibody, human IgG1, lambda, L234A L235A, V domains shown) VH: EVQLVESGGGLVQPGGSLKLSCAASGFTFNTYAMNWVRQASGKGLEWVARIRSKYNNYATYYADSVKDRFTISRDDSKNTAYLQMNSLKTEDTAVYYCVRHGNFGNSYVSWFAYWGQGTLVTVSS VL: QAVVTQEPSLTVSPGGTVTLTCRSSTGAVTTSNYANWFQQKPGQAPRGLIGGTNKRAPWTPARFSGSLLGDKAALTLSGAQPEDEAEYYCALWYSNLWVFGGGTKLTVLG"
endpoint_result = 0.074


get_value(item= H12 (antibody, human IgG1, lambda, L234A L235A, V domains shown) VH: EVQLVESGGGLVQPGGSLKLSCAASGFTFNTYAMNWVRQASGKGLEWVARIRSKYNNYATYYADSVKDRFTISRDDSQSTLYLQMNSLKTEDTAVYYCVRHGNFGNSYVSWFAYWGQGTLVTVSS VL: QAVVTQEPSLTVSPGGTVTLTCRSSTGAVTTSNYANWVQQKPGQAPRTLIGGTNKRAPWTPARFSGSLLGDKAALTLSGAQPEDEAEYYCALWYSNLWVFGGGTKLTVLG , readout=Absorbance (450 nm)) returns 0.099
